Source of measurements: patent US20200087408A1

- SYSTEM NAME: T1, human IL-36R (on cells) (human, UniProt Q9HB29 20-575)
- T1 sequence (looked up): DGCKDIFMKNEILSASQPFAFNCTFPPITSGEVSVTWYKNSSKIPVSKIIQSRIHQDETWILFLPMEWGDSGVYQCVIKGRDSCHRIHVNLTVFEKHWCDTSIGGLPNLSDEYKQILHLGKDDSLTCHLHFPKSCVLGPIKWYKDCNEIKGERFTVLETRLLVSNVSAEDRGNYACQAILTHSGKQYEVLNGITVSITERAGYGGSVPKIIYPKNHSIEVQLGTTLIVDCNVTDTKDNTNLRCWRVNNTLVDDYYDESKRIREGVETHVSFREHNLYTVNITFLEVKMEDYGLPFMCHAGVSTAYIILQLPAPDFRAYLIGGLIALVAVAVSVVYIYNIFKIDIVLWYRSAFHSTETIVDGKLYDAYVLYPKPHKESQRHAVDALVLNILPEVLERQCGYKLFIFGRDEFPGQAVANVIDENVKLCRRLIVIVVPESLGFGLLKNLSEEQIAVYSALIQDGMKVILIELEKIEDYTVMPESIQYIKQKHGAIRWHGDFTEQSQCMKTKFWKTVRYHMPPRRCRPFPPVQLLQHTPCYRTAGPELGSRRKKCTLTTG
- PROCEDURE TEXT: cell-based or functional assay
MEASURED PROPERTY: EC50 (nM), IL-8 secretion by primary human monocytes, human IL-36α
Units required after the number.

>  <BINDER>
Humanized (HzD) 1D9 (APE5281) (antibody, V domains shown, also called 1D9 Humanized) VH: QVQLMQSGAEVKKPGASVKVSCKASGFTFTSYDINWVRQAPGQRLEWMGWIYPGDSSTKYNEKFKGRVTITADKSANTAYMELASLRSEDTAVYFCTRSFYTMDYWGQGTTVTVSS VL: DIVMTQSPLSLPVTPGEPASISCRSSKSLLHSNANTYLYWFLQKPGQSPQLLISRMSNLASGVPDRFSGSGSGTDFTLKISRVEAEDVGVYYCMQHLEYPFTFGQGTKLEIK

>  <RESULT>
0.035 nM

$$$$
>  <BINDER>
Hzd 5D3 (APE6155) (antibody, V domains shown, also called APE6917; APE06155) VH: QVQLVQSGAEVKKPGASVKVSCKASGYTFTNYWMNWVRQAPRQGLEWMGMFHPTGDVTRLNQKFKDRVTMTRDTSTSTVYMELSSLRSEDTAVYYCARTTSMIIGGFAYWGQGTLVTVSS VL: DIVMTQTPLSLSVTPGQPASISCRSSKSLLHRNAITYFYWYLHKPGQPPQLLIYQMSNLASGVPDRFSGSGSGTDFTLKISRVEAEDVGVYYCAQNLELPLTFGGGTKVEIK

>  <RESULT>
0.088 nM

$$$$

Qu. Any idea what EC50 (nM), IL-8 secretion by primary human monocytes, human IL-36α was measured for Hzd 5D3 (APE6060) (antibody, V domains shown, also called 5D3 Humanized) VH: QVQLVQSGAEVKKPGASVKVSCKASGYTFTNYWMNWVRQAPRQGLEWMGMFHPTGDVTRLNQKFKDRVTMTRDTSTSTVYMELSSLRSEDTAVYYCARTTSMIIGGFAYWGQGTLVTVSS VL: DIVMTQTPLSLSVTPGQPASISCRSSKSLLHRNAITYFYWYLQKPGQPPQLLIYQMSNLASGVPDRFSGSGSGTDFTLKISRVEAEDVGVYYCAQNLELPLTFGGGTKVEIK ?
Ans. 0.081 nM

Qu. Any idea what EC50 (nM), IL-8 secretion by primary human monocytes, human IL-36α was measured for Hzd 5D3 (APE6194) (antibody, V domains shown, also called 5D3 Humanized) VH: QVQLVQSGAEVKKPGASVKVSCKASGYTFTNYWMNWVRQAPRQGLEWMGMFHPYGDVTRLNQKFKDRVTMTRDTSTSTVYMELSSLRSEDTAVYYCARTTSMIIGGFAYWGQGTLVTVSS VL: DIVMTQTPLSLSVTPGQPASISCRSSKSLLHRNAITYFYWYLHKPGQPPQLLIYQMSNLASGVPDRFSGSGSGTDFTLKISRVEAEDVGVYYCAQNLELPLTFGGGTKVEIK ?
Ans. 0.09 nM
